# SUBJECT_OF_TEST: Histone-lysine N-methyltransferase EHMT2 (Homo sapiens) (UniProt Q96KQ7)
# Sequence (Q96KQ7 913-1193 limits assumed): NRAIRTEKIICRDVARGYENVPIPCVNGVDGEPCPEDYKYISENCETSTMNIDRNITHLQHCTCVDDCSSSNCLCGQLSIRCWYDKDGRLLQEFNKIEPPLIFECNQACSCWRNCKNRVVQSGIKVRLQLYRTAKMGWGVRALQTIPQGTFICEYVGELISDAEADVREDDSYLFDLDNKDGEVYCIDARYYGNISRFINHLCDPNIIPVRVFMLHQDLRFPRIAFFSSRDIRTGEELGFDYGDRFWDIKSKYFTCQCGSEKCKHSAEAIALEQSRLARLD
# METHOD: qHTS Assay for Inhibitors of Histone Lysine Methyltransferase G9a; further: nearly all actives have a fitted effect of over 75% in size
# ASSAY_CONDITIONS: G9a H3K9 monomethylation, AlphaScreen, 2 h; series mostly up to 59 µM
About 31,000 (8.9%) of roughly 350,000 compounds were called active. Not shown: some 15% with an inconclusive outcome. The call rests on the fitted dose curve; in most records, active means well fitted inhibition curve with a large enough effect; inconclusive means small, poorly fitted or top-dose-only effect; inactive means no such curve, though single readings can be large or run the other way. Only a selection was taken, and actives are over-represented in it overall.
Possible outcomes: YES = active, NO = inactive

| COMPOUND | SUBJECT_OF_TEST | ASSIGNED_CLASS |
| --- | --- | --- |
| CCCn1c(C2CCCN2c2nc(-c3ccc(C)cc3)cs2)nc2cc(Cl)c(N3CCCCC3)cc21 (stereo not drawn) | Histone-lysine N-methyltransferase EHMT2 (Homo sapiens) (UniProt Q96KQ7) | NO |
| O=C(O)/C=C/c1ccc(S(=O)(=O)N2CCCCCC2)cc1 | Histone-lysine N-methyltransferase EHMT2 (Homo sapiens) (UniProt Q96KQ7) | NO |
| CC1=C(c2ccc(F)cc2)S(=O)(=O)N=C1N1CCC(C(=O)NCCc2ccccc2C)CC1 | Histone-lysine N-methyltransferase EHMT2 (Homo sapiens) (UniProt Q96KQ7) | NO |
| COC(=O)c1cc(S(=O)(=O)NCC2CCN(Cc3ccc(Cl)cc3)CC2)cn1C | Histone-lysine N-methyltransferase EHMT2 (Homo sapiens) (UniProt Q96KQ7) | NO |
| Cc1cccc(N(Cc2ccccc2)C(=O)c2cc(S(=O)(=O)N3CCOCC3)ccc2F)c1 | Histone-lysine N-methyltransferase EHMT2 (Homo sapiens) (UniProt Q96KQ7) | NO |
| CC1CCCN(CC(=O)Nc2cc(Cl)ccc2Oc2ccccc2)C1 (stereo not drawn) | Histone-lysine N-methyltransferase EHMT2 (Homo sapiens) (UniProt Q96KQ7) | NO |
| O=C(c1cccc([N+](=O)[O-])c1)N1CCN(C(=O)c2ccco2)CC1 | Histone-lysine N-methyltransferase EHMT2 (Homo sapiens) (UniProt Q96KQ7) | NO |
| CC(C)CC(=O)NC(=S)Nc1cc(C(=O)O)ccc1Cl | Histone-lysine N-methyltransferase EHMT2 (Homo sapiens) (UniProt Q96KQ7) | NO |
| O=[N+]([O-])c1ccccc1OCCCCN1CCCCC1 | Histone-lysine N-methyltransferase EHMT2 (Homo sapiens) (UniProt Q96KQ7) | NO |
| Cc1ccc(C)c(NC(=S)NNC(=S)Nc2ccc(C(C)C)cc2)c1 | Histone-lysine N-methyltransferase EHMT2 (Homo sapiens) (UniProt Q96KQ7) | YES |
| O=C(N/N=C\C1CC=CCC1)c1ccc(Br)o1 (stereo not drawn) | Histone-lysine N-methyltransferase EHMT2 (Homo sapiens) (UniProt Q96KQ7) | NO |
| CC1CCN(C(=S)c2cccc([N+](=O)[O-])c2)CC1 | Histone-lysine N-methyltransferase EHMT2 (Homo sapiens) (UniProt Q96KQ7) | YES |
| CC(NC(=O)CCc1cn(Cc2ccccc2Cl)c2ccccc12)c1ccccc1 (stereo not drawn) | Histone-lysine N-methyltransferase EHMT2 (Homo sapiens) (UniProt Q96KQ7) | NO |
| COc1ccc(NC(=O)c2sc3nc(-c4cc5cccc(OC)c5oc4=O)[nH]c(=O)c3c2C)cc1 | Histone-lysine N-methyltransferase EHMT2 (Homo sapiens) (UniProt Q96KQ7) | NO |
| COc1ccc2oc(C(=O)NCc3ccco3)c(C)c2c1 | Histone-lysine N-methyltransferase EHMT2 (Homo sapiens) (UniProt Q96KQ7) | NO |
| Cc1ccc(-c2csc(N3CCN(c4cc5c(cc4Cl)nc(-c4ccncc4)n5CCOCCO)CC3)n2)cc1 | Histone-lysine N-methyltransferase EHMT2 (Homo sapiens) (UniProt Q96KQ7) | YES |
| CCOc1ccc(NC(=O)CC2C(=O)N(c3cccc(OC)c3)C(=O)N2C2CCCCC2)cc1 (stereo not drawn) | Histone-lysine N-methyltransferase EHMT2 (Homo sapiens) (UniProt Q96KQ7) | NO |
| CCn1c(SCC(=O)NNC(=O)c2ccc(OC)cc2)nnc1C(C)C | Histone-lysine N-methyltransferase EHMT2 (Homo sapiens) (UniProt Q96KQ7) | NO |
